Exercise: for every item that follows, state its recorded normalized RNA/DNA level with ligand (log10).
B1: library; a variant is named by its letters at N, in order (parent)
chain: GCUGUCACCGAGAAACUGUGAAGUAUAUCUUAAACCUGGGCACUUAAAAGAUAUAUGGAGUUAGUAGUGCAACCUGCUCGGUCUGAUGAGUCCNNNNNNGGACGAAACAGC

variants of: B1; experiment: normalized RNA/DNA level with ligand (relative to sTRSVctl = 100) (log10 (% of sTRSVctl)); HEK293T; ligand: cyclic di-GMP (c-di-GMP-II aptamer); ligand concentration (+) RNA-Seq: 1 mM; higher = less ribozyme self-cleavage, higher mRNA level; conditions: reporter: mCherry (pCS4076), ligand present: yes

Value of normalized RNA/DNA level with ligand (log10) reported for the variant GCUGUCACCGAGAAACUGUGAAGUAUAUCUUAAACCUGGGCACUUAAAAGAUAUAUGGAGUUAGUAGUGCAACCUGCUCGGUCUGAUGAGUCCGGGACUGGACGAAACAGC [GGGACU] is 1.83

Query GCUGUCACCGAGAAACUGUGAAGUAUAUCUUAAACCUGGGCACUUAAAAGAUAUAUGGAGUUAGUAGUGCAACCUGCUCGGUCUGAUGAGUCCCUUGCUGGACGAAACAGC [CUUGCU] yields normalized RNA/DNA level with ligand (log10) of 1.86

Lab book: normalized RNA/DNA level with ligand (log10) of GCUGUCACCGAGAAACUGUGAAGUAUAUCUUAAACCUGGGCACUUAAAAGAUAUAUGGAGUUAGUAGUGCAACCUGCUCGGUCUGAUGAGUCCCCAGAGGGACGAAACAGC [CCAGAG] noted as 1.62

For reference, reported normalized RNA/DNA level with ligand (log10) for GCUGUCACCGAGAAACUGUGAAGUAUAUCUUAAACCUGGGCACUUAAAAGAUAUAUGGAGUUAGUAGUGCAACCUGCUCGGUCUGAUGAGUCCACGAUCGGACGAAACAGC [ACGAUC] stands at 1.75

Entry under test: GCUGUCACCGAGAAACUGUGAAGUAUAUCUUAAACCUGGGCACUUAAAAGAUAUAUGGAGUUAGUAGUGCAACCUGCUCGGUCUGAUGAGUCCCGAACGGGACGAAACAGC [CGAACG] . Its normalized RNA/DNA level with ligand (log10) was 1.9

Quick note, normalized RNA/DNA level with ligand (log10) for GCUGUCACCGAGAAACUGUGAAGUAUAUCUUAAACCUGGGCACUUAAAAGAUAUAUGGAGUUAGUAGUGCAACCUGCUCGGUCUGAUGAGUCCCCCGUUGGACGAAACAGC [CCCGUU] landed at 1.87

normalized RNA/DNA level with ligand (log10) for GCUGUCACCGAGAAACUGUGAAGUAUAUCUUAAACCUGGGCACUUAAAAGAUAUAUGGAGUUAGUAGUGCAACCUGCUCGGUCUGAUGAGUCCCCGCGUGGACGAAACAGC [CCGCGU] is 1.84

Entry GCUGUCACCGAGAAACUGUGAAGUAUAUCUUAAACCUGGGCACUUAAAAGAUAUAUGGAGUUAGUAGUGCAACCUGCUCGGUCUGAUGAGUCCUCACGGGGACGAAACAGC [UCACGG] ; normalized RNA/DNA level with ligand (log10) = 1.9

Lab book: normalized RNA/DNA level with ligand (log10) of GCUGUCACCGAGAAACUGUGAAGUAUAUCUUAAACCUGGGCACUUAAAAGAUAUAUGGAGUUAGUAGUGCAACCUGCUCGGUCUGAUGAGUCCACUAAUGGACGAAACAGC [ACUAAU] noted as 1.68

For GCUGUCACCGAGAAACUGUGAAGUAUAUCUUAAACCUGGGCACUUAAAAGAUAUAUGGAGUUAGUAGUGCAACCUGCUCGGUCUGAUGAGUCCUUGGAUGGACGAAACAGC [UUGGAU] the variant record lists normalized RNA/DNA level with ligand (log10) as 1.83

normalized RNA/DNA level with ligand (log10) reading for GCUGUCACCGAGAAACUGUGAAGUAUAUCUUAAACCUGGGCACUUAAAAGAUAUAUGGAGUUAGUAGUGCAACCUGCUCGGUCUGAUGAGUCCCAACGAGGACGAAACAGC [CAACGA] : 1.73

normalized RNA/DNA level with ligand (log10) for GCUGUCACCGAGAAACUGUGAAGUAUAUCUUAAACCUGGGCACUUAAAAGAUAUAUGGAGUUAGUAGUGCAACCUGCUCGGUCUGAUGAGUCCCUACAGGGACGAAACAGC [CUACAG] is 1.87

normalized RNA/DNA level with ligand (log10) for GCUGUCACCGAGAAACUGUGAAGUAUAUCUUAAACCUGGGCACUUAAAAGAUAUAUGGAGUUAGUAGUGCAACCUGCUCGGUCUGAUGAGUCCGCCGUAGGACGAAACAGC [GCCGUA] is 1.74

For reference, reported normalized RNA/DNA level with ligand (log10) for GCUGUCACCGAGAAACUGUGAAGUAUAUCUUAAACCUGGGCACUUAAAAGAUAUAUGGAGUUAGUAGUGCAACCUGCUCGGUCUGAUGAGUCCAGUGAUGGACGAAACAGC [AGUGAU] stands at 1.81

Record GCUGUCACCGAGAAACUGUGAAGUAUAUCUUAAACCUGGGCACUUAAAAGAUAUAUGGAGUUAGUAGUGCAACCUGCUCGGUCUGAUGAGUCCAUAAUAGGACGAAACAGC [AUAAUA] , field normalized RNA/DNA level with ligand (log10): 1.75

For this variant ( GCUGUCACCGAGAAACUGUGAAGUAUAUCUUAAACCUGGGCACUUAAAAGAUAUAUGGAGUUAGUAGUGCAACCUGCUCGGUCUGAUGAGUCCAUCCCCGGACGAAACAGC [AUCCCC] ), measured normalized RNA/DNA level with ligand (log10) is 1.92

Recorded result, GCUGUCACCGAGAAACUGUGAAGUAUAUCUUAAACCUGGGCACUUAAAAGAUAUAUGGAGUUAGUAGUGCAACCUGCUCGGUCUGAUGAGUCCAUAAGCGGACGAAACAGC [AUAAGC] , normalized RNA/DNA level with ligand (log10): 1.77

Quick note, normalized RNA/DNA level with ligand (log10) for GCUGUCACCGAGAAACUGUGAAGUAUAUCUUAAACCUGGGCACUUAAAAGAUAUAUGGAGUUAGUAGUGCAACCUGCUCGGUCUGAUGAGUCCUGGCAAGGACGAAACAGC [UGGCAA] landed at 1.8

# normalized RNA/DNA level with ligand (log10) (variant: GCUGUCACCGAGAAACUGUGAAGUAUAUCUUAAACCUGGGCACUUAAAAGAUAUAUGGAGUUAGUAGUGCAACCUGCUCGGUCUGAUGAGUCCAUUAUUGGACGAAACAGC [AUUAUU] ) is 1.79

# normalized RNA/DNA level with ligand (log10) (variant: GCUGUCACCGAGAAACUGUGAAGUAUAUCUUAAACCUGGGCACUUAAAAGAUAUAUGGAGUUAGUAGUGCAACCUGCUCGGUCUGAUGAGUCCGAGCAAGGACGAAACAGC [GAGCAA] ) is 1.83

normalized RNA/DNA level with ligand (log10) recorded for this variant, GCUGUCACCGAGAAACUGUGAAGUAUAUCUUAAACCUGGGCACUUAAAAGAUAUAUGGAGUUAGUAGUGCAACCUGCUCGGUCUGAUGAGUCCUGGGUCGGACGAAACAGC [UGGGUC] , is 1.93

The reported value for GCUGUCACCGAGAAACUGUGAAGUAUAUCUUAAACCUGGGCACUUAAAAGAUAUAUGGAGUUAGUAGUGCAACCUGCUCGGUCUGAUGAGUCCCGCUCUGGACGAAACAGC [CGCUCU] in terms of normalized RNA/DNA level with ligand (log10) is 1.73

Lab book: normalized RNA/DNA level with ligand (log10) of GCUGUCACCGAGAAACUGUGAAGUAUAUCUUAAACCUGGGCACUUAAAAGAUAUAUGGAGUUAGUAGUGCAACCUGCUCGGUCUGAUGAGUCCUAGUAAGGACGAAACAGC [UAGUAA] noted as 1.8

// normalized RNA/DNA level with ligand (log10) value for GCUGUCACCGAGAAACUGUGAAGUAUAUCUUAAACCUGGGCACUUAAAAGAUAUAUGGAGUUAGUAGUGCAACCUGCUCGGUCUGAUGAGUCCUGCCUGGGACGAAACAGC [UGCCUG] : 1.88

Lab book: normalized RNA/DNA level with ligand (log10) of GCUGUCACCGAGAAACUGUGAAGUAUAUCUUAAACCUGGGCACUUAAAAGAUAUAUGGAGUUAGUAGUGCAACCUGCUCGGUCUGAUGAGUCCUCCAUAGGACGAAACAGC [UCCAUA] noted as 1.74

Form field normalized RNA/DNA level with ligand (log10), entry GCUGUCACCGAGAAACUGUGAAGUAUAUCUUAAACCUGGGCACUUAAAAGAUAUAUGGAGUUAGUAGUGCAACCUGCUCGGUCUGAUGAGUCCGCGUGCGGACGAAACAGC [GCGUGC] : 1.81

Input GCUGUCACCGAGAAACUGUGAAGUAUAUCUUAAACCUGGGCACUUAAAAGAUAUAUGGAGUUAGUAGUGCAACCUGCUCGGUCUGAUGAGUCCGUAGCGGGACGAAACAGC [GUAGCG] . Output normalized RNA/DNA level with ligand (log10): 1.88

Briefly, normalized RNA/DNA level with ligand (log10) measured for GCUGUCACCGAGAAACUGUGAAGUAUAUCUUAAACCUGGGCACUUAAAAGAUAUAUGGAGUUAGUAGUGCAACCUGCUCGGUCUGAUGAGUCCGGAGCCGGACGAAACAGC [GGAGCC] : 1.9

GCUGUCACCGAGAAACUGUGAAGUAUAUCUUAAACCUGGGCACUUAAAAGAUAUAUGGAGUUAGUAGUGCAACCUGCUCGGUCUGAUGAGUCCGGCAAGGGACGAAACAGC [GGCAAG] has a reported normalized RNA/DNA level with ligand (log10) of 1.74

For GCUGUCACCGAGAAACUGUGAAGUAUAUCUUAAACCUGGGCACUUAAAAGAUAUAUGGAGUUAGUAGUGCAACCUGCUCGGUCUGAUGAGUCCACUGUAGGACGAAACAGC [ACUGUA] the variant record lists normalized RNA/DNA level with ligand (log10) as 1.76
